molecular target: HLA-DRB1*04:01 (Homo sapiens, UniProt P01903+P01911, A100K/A169T/F76Y/I96L/K127E/L162R/M171V/N62H/P40V/Q125Y/R42H/S133A/S149N/S66Y/V115G/V209L/W38E); construct: EBV transformed homozygous cell lines were used as sources of MHC molecules; endogenous in cells; host or cells: EBV transformed homozygous cell lines; assay: HLA class II peptide binding, inhibition of radiolabeled peptide binding to purified MHC; details: citrullinated 15-mer peptide (X = citrulline); purified HLA-DRB1*04:01; read-out: DRB1*04:01 binding capacity, Cit peptide (IC50 nM)
Square brackets hold non-standard residues; d marks the D form. Peptide text beside a SMILES is read from it. Cit = NC(=O)NCCC[C@H](N)C(=O)O
Measured property: IC50

- Molecule: "CC(C)[C@H](NC(=O)[C@H](CCC(N)=O)NC(=O)[C@H](CCCNC(=N)N)NC(=O)[C@H](CCCNC(N)=O)NC(=O)[C@H](Cc1ccc(O)cc1)NC(=O)[C@H](CCC(=O)O)NC(=O)[C@@H](NC(=O)[C@H](CO)NC(=O)[C@H](CCC(=O)O)NC(=O)[C@H](CCC(N)=O)NC(=O)[C@H](CCCCN)NC(=O)[C@H](C)NC(=O)[C@@H](N)CCC(N)=O)[C@@H](C)O)C(=O)N[C@@H](CCC(N)=O)C(=O)N[C@@H](CO)C(=O)O [QAKQESTEYXRQVQS] (H-QAKQESTEY[Cit]RQVQS-OH)"
  Experimental result: "> 40000 nM"
- Molecule: "CSCC[C@H](NC(=O)[C@H](CCC(=O)O)NC(=O)[C@H](CCC(=O)O)NC(=O)[C@H](CCCCN)NC(=O)[C@H](CCSC)NC(=O)[C@@H](N)CC(N)=O)C(=O)N[C@@H](C)C(=O)N[C@@H](CCCNC(N)=O)C(=O)N[C@@H](Cc1c[nH]cn1)C(=O)N[C@@H](CC(C)C)C(=O)N[C@@H](CCCNC(=N)N)C(=O)N[C@@H](CCC(=O)O)C(=O)N[C@@H](Cc1ccc(O)cc1)C(=O)N[C@@H](CCC(N)=O)C(=O)N[C@@H](CC(=O)O)C(=O)O [NMKEEMAXHLREYQD]"
  Experimental result: "> 40000 nM"
- Molecule: "CC[C@H](C)[C@H](NC(=O)[C@H](CCC(=O)O)NC(=O)[C@H](CC(=O)O)NC(=O)[C@H](CCC(N)=O)NC(=O)[C@H](CC(C)C)NC(=O)[C@H](CCCNC(N)=O)NC(=O)CNC(=O)[C@@H](NC(=O)[C@@H](NC(=O)[C@H](CC(=O)O)NC(=O)[C@H](CCC(N)=O)NC(=O)[C@H](Cc1ccc(O)cc1)NC(=O)[C@H](CC(N)=O)NC(=O)[C@H](C)N)[C@@H](C)O)[C@@H](C)CC)C(=O)N[C@@H](CCC(N)=O)C(=O)O [ANYQDTIGXLQDEIQ] (H-ANYQDTIG[Cit]LQDEIQ-OH)"
  Experimental result: "6720 nM"
- Molecule: "CC[C@H](C)[C@H](NC(=O)[C@H](CCC(=O)O)NC(=O)[C@@H](NC(=O)[C@H](CC(=O)O)NC(=O)[C@H](CC(C)C)NC(=O)[C@H](C)NC(=O)[C@@H](N)CCSC)[C@@H](C)CC)C(=O)N[C@@H](C)C(=O)N[C@H](C(=O)N[C@@H](Cc1ccc(O)cc1)C(=O)N[C@@H](CCCNC(N)=O)C(=O)N[C@@H](CCCCN)C(=O)N[C@@H](CC(C)C)C(=O)N[C@@H](CC(C)C)C(=O)N[C@@H](CCC(=O)O)C(=O)O)[C@@H](C)O [MALDIEIATYXKLLE] (H-MALDIEIATY[Cit]KLLE-OH)"
  Experimental result: "4950 nM"
- Molecule: "C[C@H](N)C(=O)N[C@@H](CCCNC(N)=O)C(=O)NCC(=O)N[C@@H](C)C(=O)N[C@@H](CCC(N)=O)C(=O)NCC(=O)N1CCC[C@H]1C(=O)N1CCC[C@H]1C(=O)NCC(=O)N[C@@H](C)C(=O)N[C@H](C(=O)NCC(=O)N[C@@H](Cc1ccccc1)C(=O)N1CCC[C@H]1C(=O)NCC(=O)O)[C@@H](C)O [AXGAQGPPGATGFPG] (H-A[Cit]GAQGPPGATGFPG-OH; N-terminus and C-terminus assumed)"
  Experimental result: "> 40000 nM"
- Molecule: "CC(C)[C@H](NC(=O)[C@H](CCC(N)=O)NC(=O)[C@H](CCCNC(N)=O)NC(=O)[C@H](CCCNC(=N)N)NC(=O)[C@H](Cc1ccc(O)cc1)NC(=O)[C@H](CCC(=O)O)NC(=O)[C@@H](NC(=O)[C@H](CO)NC(=O)[C@H](CCC(=O)O)NC(=O)[C@H](CCC(N)=O)NC(=O)[C@H](CCCCN)NC(=O)[C@H](C)NC(=O)[C@@H](N)CCC(N)=O)[C@@H](C)O)C(=O)N[C@@H](CCC(N)=O)C(=O)N[C@@H](CO)C(=O)O [QAKQESTEYRXQVQS] (H-QAKQESTEYR[Cit]QVQS-OH)"
  Experimental result: "7440 nM"
- Molecule: "N=C(N)NCCC[C@H](NC(=O)[C@H](CCC(=O)O)NC(=O)CNC(=O)[C@@H]1CCCN1C(=O)[C@H](Cc1ccccc1)NC(=O)CNC(=O)[C@H](CCCNC(N)=O)NC(=O)[C@H](CCC(=O)O)NC(=O)CNC(=O)[C@H](CCCNC(=N)N)NC(=O)[C@@H]1CCCN1C(=O)CN)C(=O)NCC(=O)N[C@@H](CO)C(=O)N1CCC[C@H]1C(=O)O [GPRGEXGFPGERGSP] (H-GPRGE[Cit]GFPGERGSP-OH)"
  Experimental result: "> 40000 nM"
- Molecule: "CC(C)C[C@H](NC(=O)[C@H](CC(C)C)NC(=O)[C@@H](NC(=O)[C@H](CC(C)C)NC(=O)[C@H](CC(C)C)NC(=O)[C@@H](N)C(C)C)[C@@H](C)O)C(=O)N[C@H](C(=O)N[C@@H](C)C(=O)N[C@@H](C)C(=O)N[C@H](C(=O)N[C@@H](CC(C)C)C(=O)N[C@@H](CCCNC(N)=O)C(=O)N[C@@H](CS)C(=O)N[C@@H](CCC(N)=O)C(=O)NCC(=O)O)C(C)C)C(C)C [VLLTLLVAAVLXCQG] (H-VLLTLLVAAVL[Cit]CQG-OH)"
  Experimental result: "> 40000 nM"
- Molecule: "C[C@H](NC(=O)CNC(=O)[C@H](C)NC(=O)[C@@H]1CCCN1C(=O)CNC(=O)[C@@H](NC(=O)[C@H](CCCNC(=N)N)NC(=O)CNC(=O)[C@H](CCCNC(N)=O)NC(=O)[C@@H](N)CCC(=O)O)[C@@H](C)O)C(=O)N[C@@H](C)C(=O)NCC(=O)N[C@@H](C)C(=O)N[C@@H](CCCNC(=N)N)C(=O)NCC(=O)O [EXGRTGPAGAAGARG] (H-E[Cit]GRTGPAGAAGARG-OH)"
  Experimental result: "> 40000 nM"

----------
List of IC50 values.
target: HLA-DRB1*04:01 (Homo sapiens, UniProt P01903+P01911, A100K/A169T/F76Y/I96L/K127E/L162R/M171V/N62H/P40V/Q125Y/R42H/S133A/S149N/S66Y/V115G/V209L/W38E); construct: EBV transformed homozygous cell lines were used as sources of MHC molecules; endogenous in cells; host or cells: EBV transformed homozygous cell lines; test: HLA class II peptide binding, inhibition of radiolabeled peptide binding to purified MHC; details: citrullinated peptide as listed (X at Cit position); read-out: DRB1*04:01 binding capacity Cit peptide (IC50 nM)
Square brackets hold non-standard residues; d marks the D form. Peptide text beside a SMILES is read from it. Cit = NC(=O)NCCC[C@H](N)C(=O)O

- Compound: "CC[C@H](C)[C@H](NC(=O)[C@H](CO)NC(=O)[C@H](CCC(=O)O)NC(=O)[C@@H](NC(=O)[C@H](CCC(N)=O)NC(=O)[C@H](CC(N)=O)NC(=O)[C@H](CC(N)=O)NC(=O)[C@H](CC(C)C)NC(=O)[C@H](CO)NC(=O)[C@H](CCCCN)NC(=O)[C@H](CC(C)C)NC(=O)[C@@H](NC(=O)[C@H](C)NC(=O)[C@@H](N)CC(=O)O)[C@@H](C)O)[C@@H](C)CC)C(=O)N[C@@H](CCCNC(N)=O)C(=O)O [DATLKSLNNQIESIX] (H-DATLKSLNNQIESI[Cit]-OH)"
  IC50 [nM]: 1390
- Compound: "CC[C@H](C)[C@H](NC(=O)[C@@H](NC(=O)[C@@H](NC(=O)[C@H](CCCCN)NC(=O)CN)[C@@H](C)O)C(C)C)C(=O)N[C@@H](CCC(=O)O)C(=O)N[C@@H](Cc1ccc(O)cc1)C(=O)N[C@@H](CCCNC(N)=O)C(=O)N[C@@H](CO)C(=O)N[C@@H](CCC(N)=O)C(=O)N[C@@H](CCCCN)C(=O)N[C@H](C(=O)N[C@@H](CO)C(=O)N[C@@H](CCCNC(=N)N)C(=O)N[C@@H](CC(C)C)C(=O)O)[C@@H](C)O [GKTVIEYXSQKTSRL] (H-GKTVIEY[Cit]SQKTSRL-OH)"
  IC50 [nM]: 153

The reported measurements were obtained from paper PMC5421785.
